Molecular target: T1, recombinant extracellular domain of CD38 (human, UniProt P28907 43-300)
T1 construct: also called CD38 extracellular domain; AtaGenix ATMP00140HU
Assay: Biacore SPR
quantity measured: kon

binder	quantity measured	recorded measurement
FTL004-hu-5 (antibody, human IgG1, kappa, V domains shown, also called FLT004-hu-5; FTL004-hum-5) VH: QVQLVQSGSELKKPGASVKVSCKASGYTFTDYNVHWIRQAPGQGLEWIGYFYPRNGATHYNQKFTGRAVLSADTSVSTAYLQISSLKAEDTAVYFCARGETPGTFPYWGQGTLVTVSS VL: DIQLTQSPSSLSASVGDRVTITCRASESVDNFGITFMHWYQQKPGKAPKLLIYRASNLESGVPSRFSGSGSRTDFTLTISSLQPEDFATYYCQQSSKDPRTFGQGTKLEIKR	kon	415000 M⁻¹ s⁻¹
FTL004-hu-14 (antibody, human IgG1, kappa, V domains shown, also called FLT004-hu-14; FTL004-hum-14) VH: EVQLVQSGAEVKKPGATVKISCKASGYTFTDYNVHWIQQAPGKGLEWIGYFYPRNGATHYAEKFQGRVTLTADTSTDTAYMELSSLRSEDTAVYYCARGETPGTFPYWGQGTLVTVSS VL: DIVLTQSPASLAVSPGQRATITCRASESVDNFGITFMHWYQQKPGQPPKLLIYRASNLESGVPARFSGSGSRTDFTLTINPVEANDTANYYCQQSSKDPRTFGQGTKLEIKR	kon	208000 M⁻¹ s⁻¹
H2 antibody (antibody, V domains shown, Murine monoclonal antibody from a BALB/c hybridoma; also called H2 mAb; Hybridoma-2) VH: EVQLQESGAELVRSGASVKMSCKASGYTFTDYNVHWIKQTPGQGLEWIGYFYPRNGATHYNQKFTGKATLTADTSSSTAYIQISSLTSEDSAVYFCARGETPGTFPYWGQGTLVTVSA VL: DIVLTQSPASLTVSLGQRATISCRASESVDNFGITFMHWYQQKPGQPPKLLIYRASNLESGIPARFSGSGSRTDFTLTIDPVETDDVATYYCQQSSKDPRTFGGGTKLEIK	kon	248000 M⁻¹ s⁻¹

Data provenance is patent US20240400711A1.
